The values you see were collected from patent US11230526B1.

EC50 reference
Target: human GPR40 (Homo sapiens)
Experiment: GPR40 calcium flux assay, human GPR40
Details: HEK293 cells stably expressing GPR40; table does not say human or rat
Report only the number, with the unit µM understood.

Guide cases for EC50, answers given:
{"columns": ["molecule", "unitAnnotation", "EC50"],
 "data": [
  ["O=C(O)CCc1ccc(OCC2=C(C3C=CCC3)CCC2)cc1Cl (stereo not shown)", "µM", 0.032],
  ["COC1CCC(c2ccc(C)cc2)=C(COc2ccc(CCC(=O)O)c(C(F)(F)F)c2)C1 (stereo not shown)", "µM", 3.01],
  ["O=C(O)CCc1ccc(OCC2=C(C3C=CCC3)CCC2)cc1C(F)(F)F (stereo not shown)", "µM", 0.01]
]}

// next entry
Qu. Please give the measured EC50 for this molecule: O=C(O)CCc1ccc(OCC2=C(C3CCC3)CC(F)(F)C2)cc1Cl
Ans. 0.046

* * *

Molecular target: Human GPR120 short form (Homo sapiens)
Construct: expressed in transfected cells
Sequence (Q5NUL3 whole entry): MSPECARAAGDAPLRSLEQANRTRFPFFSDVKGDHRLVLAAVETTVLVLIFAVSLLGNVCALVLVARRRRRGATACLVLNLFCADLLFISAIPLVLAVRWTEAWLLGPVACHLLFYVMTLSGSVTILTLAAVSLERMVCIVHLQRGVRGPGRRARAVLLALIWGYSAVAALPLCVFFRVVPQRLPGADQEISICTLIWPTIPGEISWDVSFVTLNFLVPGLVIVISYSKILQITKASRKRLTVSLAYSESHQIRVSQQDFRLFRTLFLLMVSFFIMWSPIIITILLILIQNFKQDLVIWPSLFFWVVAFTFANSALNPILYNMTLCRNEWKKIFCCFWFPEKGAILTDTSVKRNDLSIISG
Assay: Human GPR120 calcium flux assay, Procedure Calcium B (4200 cells/well)
Type: cell-based
testReadout: pEC50
Remember, pEC50 is on a log scale: it is -log10 of the molar concentration.

Guide cases for pEC50, answers given:
{"columns": ["smilesRecord", "pEC50"],
 "data": [
  ["Cc1cc(OCC2=C(c3ccccc3)CCC2)c(F)cc1CCC(=O)O", 6.10],
  ["Cc1cc(OCC2=C(c3ccccc3Cl)CCC2)c(F)cc1CCC(=O)O", 5.92],
  ["Cc1ncc(C2=C(COc3c(F)cc(CCC(=O)O)cc3F)CC(F)(F)CC2)s1", 6.14]
]}

Qu. Please give the measured pEC50 for this compound: CC(C)CC1=C(COc2ccc(CCC(=O)O)c(Cl)c2)CCC1
Ans. 5.85

* * *

Molecular target: human GPR40 (Homo sapiens, UniProt O14842)
Sequence (O14842 whole entry): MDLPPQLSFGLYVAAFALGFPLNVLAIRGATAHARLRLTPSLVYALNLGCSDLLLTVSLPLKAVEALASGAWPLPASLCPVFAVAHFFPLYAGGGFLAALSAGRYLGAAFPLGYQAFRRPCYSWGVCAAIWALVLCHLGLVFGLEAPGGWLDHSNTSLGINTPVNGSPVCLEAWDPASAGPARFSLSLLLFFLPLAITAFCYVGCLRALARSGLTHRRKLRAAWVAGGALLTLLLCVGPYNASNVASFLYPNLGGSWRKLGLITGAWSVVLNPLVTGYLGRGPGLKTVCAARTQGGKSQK
Test: GPR40 calcium flux assay, human GPR40
Details: HEK293 cells stably expressing GPR40; table does not say human or rat
pEC50: −log10 of the molar value.
testReadout: pEC50

{"columns": ["molecule", "targetOfAssay", "pEC50"],
 "data": [
  ["O=C(O)CCc1cc(F)c(OCC2=C(C3CCCC3)CCC2)c(F)c1 [Compound 436]", "human GPR40 (Homo sapiens, UniProt O14842)", "< 5.00"],
  ["Cc1ccc(C2=C(COc3ccc(CCC(=O)O)cc3C)CC(F)(F)CC2)cc1F [Compound 530]", "human GPR40 (Homo sapiens, UniProt O14842)", "< 5.30"],
  ["O=C(O)CCc1cc(F)c(OCC2=C(c3ccccc3)CCC(F)(F)C2)c(F)c1 [Compound 539]", "human GPR40 (Homo sapiens, UniProt O14842)", "< 5.30"]
]}

Qu. Please give the measured pEC50 for this molecule: Cc1ccccc1C1=C(COc2ccc(CCC(=O)O)c(C)c2C)CCC1 [Compound 132]
Ans. < 5.30

Qu. Same lookup for Cc1cc(CCC(=O)O)cc(Br)c1OCC1=C(c2ccc(Cl)cc2)CCC1 [Compound 30] , please.
Ans. < 5.30

Qu. Same lookup for Cc1ccc(C2=C(COc3ccc(CCC(=O)O)c(F)c3F)CCCC2)cc1F [Compound 494] , please.
Ans. < 5.30
